tested on: MDA-MB-435; test: NCI tumour cell line growth inhibition, 48 h
MEASURED QUANTITY: TGI

OCCNc1ncnc2nc[nH]c12
> 100 µM
C=C(Br)CN(C)CC(=C)Br
> 100 µM
CCOc1cc(NC(C)=O)ccc1C(=O)NN1C(=O)/C(=C/c2ccco2)N=C1c1ccccc1
> 100 µM
COc1cc2c3c(n(CCCN=[N+]=[N-])c(=O)c2cc1OC)-c1ccc(C#N)cc1C3=O
> 100 µM
O=S(=O)(O)c1ccc(N=Nc2ccc(N=Nc3c(O)ccc4cc(S(=O)(=O)O)ccc34)cc2)cc1
> 100 µM

We next turn to a different molecule, shown below.
# input Answer with reported TGI of Cc1cc2c(cc1C)N1C(Cl)=C3CCCCC3=C(C#N)C1N2 (stereo unspecified)
# output > 33.1 µM
